These entries and their values trace back to patent US12268666B2.

Assay: In vivo dog bioavailability and pharmacokinetic study, reference vs SDD
Conditions: beagle, plasma, po, 30 mg/kg, dogs, fasted, suspension in 0.5% HPMC in water, mean ± SD
VALUE TYPE: AUC

                                   compound  value_type  recorded_measurement
0  COc1ccc(F)cc1C(=O)NCc1ccc(-c2nn([C@@H](C)C(F)(F)F)c(N)c2C(N)=O)cc1 [Reference]         AUC         11300 ng·h/mL

---

Target: BTK C481S (Homo sapiens, UniProt Q06187, C481S)
Sequence (Q06187 whole entry C481S): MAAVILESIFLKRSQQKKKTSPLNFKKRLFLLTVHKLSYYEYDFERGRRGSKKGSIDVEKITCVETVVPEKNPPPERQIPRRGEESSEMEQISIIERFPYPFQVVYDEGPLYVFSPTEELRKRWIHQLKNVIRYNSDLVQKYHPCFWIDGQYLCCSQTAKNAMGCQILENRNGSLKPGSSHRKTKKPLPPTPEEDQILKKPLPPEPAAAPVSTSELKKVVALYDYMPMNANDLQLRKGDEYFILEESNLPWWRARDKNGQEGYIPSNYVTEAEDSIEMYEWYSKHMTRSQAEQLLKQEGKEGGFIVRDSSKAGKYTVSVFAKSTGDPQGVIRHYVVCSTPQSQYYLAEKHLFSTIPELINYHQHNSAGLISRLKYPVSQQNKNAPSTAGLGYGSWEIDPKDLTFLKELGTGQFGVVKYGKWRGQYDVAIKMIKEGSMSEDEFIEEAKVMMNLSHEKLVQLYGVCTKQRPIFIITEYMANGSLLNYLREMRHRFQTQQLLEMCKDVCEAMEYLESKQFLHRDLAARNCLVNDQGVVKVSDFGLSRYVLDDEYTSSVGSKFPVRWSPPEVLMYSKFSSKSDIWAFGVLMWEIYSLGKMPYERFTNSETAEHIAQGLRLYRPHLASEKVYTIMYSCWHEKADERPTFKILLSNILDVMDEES
Test: BTK activity assay, [33P]-ATP incorporation into poly-EY
Assay type: biochemical
Set-up: against full-length wild type (WT) and mutant human BTK enzymes
Conditions: ATP at Km concentration; read-out: IC50 value
pIC50: −log10 of the molar value.
VALUE TYPE: pIC50

                              smiles_record                               test_target  value_type  recorded_measurement
0  COc1ccc(F)cc1C(=O)NCc1ccc(-c2nn([C@@H](C)C(F)(F)F)c(N)c2C(N)=O)cc1  BTK C481S (Homo sapiens, UniProt Q06187, C481S)       pIC50                  8.85
